target: UniProt:P08254; assay: MCA fluorogenic enzyme assay, competitive inhibition analysis (Ki,app), stromelysin; type: biochemical; conditions: Ki,app; MCA peptide substrate, 37° C., pH 7.5; read-out: Enzyme Inhibition Constants (K1) HSLN
Sequence (P08254 100-477): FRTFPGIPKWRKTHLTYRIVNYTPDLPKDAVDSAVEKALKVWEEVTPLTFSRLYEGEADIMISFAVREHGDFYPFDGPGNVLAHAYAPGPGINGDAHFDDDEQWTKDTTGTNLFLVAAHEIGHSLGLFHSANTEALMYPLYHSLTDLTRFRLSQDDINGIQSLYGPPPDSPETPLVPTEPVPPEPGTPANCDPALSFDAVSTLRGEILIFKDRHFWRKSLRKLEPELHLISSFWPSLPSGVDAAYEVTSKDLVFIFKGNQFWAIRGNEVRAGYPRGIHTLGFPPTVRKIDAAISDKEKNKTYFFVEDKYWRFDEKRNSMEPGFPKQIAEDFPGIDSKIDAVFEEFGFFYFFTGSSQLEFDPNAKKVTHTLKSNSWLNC
Please assign condition not met whenever Ki is at or above 0.8 nM, and condition met whenever it is below.

compound="CC1(C)[C@H](C(=O)NO)N(S(=O)(=O)c2ccc(Oc3ccncc3)cc2)CC[S@@+]1[O-] (single isomer, unassigned; isomer 1) [Example 19(a), 1(R), 3(S) isomer]" group="condition not met"
compound="CC(=O)N1CCN(S(=O)(=O)c2ccc(Oc3ccccc3)cc2)C(C(=O)NO)C1 (racemic) [7(a)]" group="condition met"
compound="CC(C)(C)OC(=O)N1CCN(S(=O)(=O)c2ccc(Oc3ccc(Br)cc3)cc2)C(C(=O)NO)C1 (racemic) [Example 4]" group="condition met"

Input line: Lab note: Ki threshold 0.8 nM. Does this compound come in strictly under it? O=C(NO)C1CSCCN1S(=O)(=O)c1ccc(Oc2ccccc2)cc1 (racemic) [Example 13(b)]
Output line: condition met
